Test: in vitro
Conditions: human, fresh human red blood cells (washed), pH 7.4
Non-standard residues stand in square brackets, D forms with d. Residues, ends and D or L forms follow the SMILES beside them. d2Nal = N[C@H](Cc1ccc2ccccc2c1)C(=O)O
Task for the reader: assign each of the following molecules its reported HC50 at 0.5 h.
Answers are plain numbers, in µg/mL.

molecule	unit abbreviation	HC50 at 0.5 h
N=C(N)NCCC[C@@H]1NC(=O)[C@H](CCCNC(=N)N)NC(=O)[C@@H](Cc2ccc3ccccc3c2)NC(=O)[C@@H](Cc2ccc3ccccc3c2)NC(=O)[C@@H](Cc2c[nH]c3ccccc23)NC(=O)[C@@H](CCCNC(=N)N)NC(=O)[C@@H](CCCNC(=N)N)NC1=O [IFX-118, c[Arg-Arg-arg-arg-trp-naI-naI]] (cyclo(RR[dR][dR][dW][d2Nal][d2Nal]))	µg/mL	210

Kindly consider the entry below.
Look at this molecule and give its reported HC50 at 0.5 h. NCCCC[C@@H]1NC(=O)[C@H](CCCCN)NC(=O)[C@H](CCCCN)NC(=O)[C@@H](Cc2ccc3ccccc3c2)NC(=O)[C@@H](Cc2ccc3ccccc3c2)NC(=O)[C@@H](Cc2c[nH]c3ccccc23)NC(=O)[C@H](CCCCN)NC(=O)[C@H](CCCCN)NC1=O [IFX-132, c[Lys-Lys-Lys-Lys-Lys-trp-naI-naI]] (cyclo(KKKKK[dW][d2Nal][d2Nal])) 930

* * *

I'd appreciate it if you could supply HC50 at 0.5 h values for the items below.
Assay: in vitro
Conditions: human, fresh human red blood cells (washed), pH 7.4
Non-standard residues stand in square brackets, D forms with d. Residues, ends and D or L forms follow the SMILES beside them. d2Nal = N[C@H](Cc1ccc2ccccc2c1)C(=O)O
One number for each entry, in µg/mL.

compound	reported endpoint	unit abbreviation	quantitative result
N=C(N)NCCC[C@H]1NC(=O)[C@@H](CCCNC(=N)N)NC(=O)[C@@H](CCCNC(=N)N)NC(=O)[C@@H](Cc2ccc3ccccc3c2)NC(=O)[C@@H](Cc2c[nH]c3ccccc23)NC(=O)[C@@H](Cc2ccc3ccccc3c2)NC(=O)[C@@H](CCCNC(=N)N)NC1=O [IFX-142, c[arg-arg-arg-arg-naI-trp-naI]] (cyclo([dR][dR][dR][dR][d2Nal][dW][d2Nal]))	HC50 at 0.5 h	µg/mL	285

Consider the record given below.
Fill in: HC50 at 0.5 h of N=C(N)NCCC[C@H]1NC(=O)[C@@H](CCCNC(=N)N)NC(=O)[C@@H](CCCNC(=N)N)NC(=O)[C@@H](Cc2ccc3ccccc3c2)NC(=O)[C@@H](Cc2ccc3ccccc3c2)NC(=O)[C@@H](Cc2c[nH]c3ccccc23)NC(=O)[C@@H](CCCNC(=N)N)NC(=O)[C@@H](CCCNC(=N)N)NC1=O [IFX-124, c[arg-arg-arg-arg-arg-trp-naI-naI]] (cyclo([d2Nal][d2Nal][dR][dR][dR][dR][dR][dW])) is ___ 410

* * *

Test system: Escherichia coli (ATCC 25922)
Conditions: ATCC 25922
Positions of bridges follow the written chain, without caps; N, C: chain ends. Residues, ends and D or L forms follow the SMILES beside them.
Exercise: for every item that follows, state its recorded E. coli (ATCC 25922) MIC.
Answers are plain numbers, in µg/mL.

Would you please look over these solved cases?
molecule	quantitative result
N=C(N)NCCC[C@H](NC(=O)[C@H](CCCNC(=N)N)NC(=O)[C@H](CCCNC(=N)N)NC(=O)[C@@H](N)CCCNC(=N)N)C(=O)N[C@@H](CS)C(=O)N[C@@H](Cc1c[nH]c2ccccc12)C(=O)N[C@@H](Cc1c[nH]c2ccccc12)C(=O)N[C@@H](Cc1c[nH]c2ccccc12)C(=O)N[C@@H](Cc1c[nH]c2ccccc12)C(=O)N[C@@H](CS)C(=O)O [IFX-331] (H-RRRRCWWWWC-OH)	32
N=C(N)NCCC[C@@H]1NC(=O)[C@H](CCCNC(=N)N)NC(=O)[C@H](CCCNC(=N)N)NC(=O)[C@H](CCCNC(=N)N)NC(=O)[C@@H](NC(=O)[C@H](Cc2c[nH]c3ccccc23)NC(=O)[C@H](Cc2c[nH]c3ccccc23)NC(=O)[C@H](Cc2c[nH]c3ccccc23)NC(=O)[C@@H](N)Cc2c[nH]c3ccccc23)CSSC[C@@H](C(=O)O)NC1=O [IFX-334] (H-WWWWCRRRRC-OH; disulfide 5-10)	32

API: value(readout=E. coli (ATCC 25922) MIC, system=Escherichia coli (ATCC 25922)) for record N=C(N)NCCC[C@H](NC(=O)[C@H](CCCNC(=N)N)NC(=O)[C@H](CCCNC(=N)N)NC(=O)[C@H](CCCNC(=N)N)NC(=O)[C@H](CS)NC(=O)[C@H](Cc1c[nH]c2ccccc12)NC(=O)[C@H](Cc1c[nH]c2ccccc12)NC(=O)[C@H](Cc1c[nH]c2ccccc12)NC(=O)[C@@H](N)Cc1c[nH]c2ccccc12)C(=O)N[C@@H](CS)C(=O)O [IFX-332] (H-WWWWCRRRRC-OH) 128
